Please respond with reported percentage change in peak current modulation for every item in the list.
Molecular target: α1 GlyR (Homo sapiens)
Construct: expressed in transfected cells; host or cells: HEK293
Sequence (P23415 29-449 isoform P23415-2 limits assumed): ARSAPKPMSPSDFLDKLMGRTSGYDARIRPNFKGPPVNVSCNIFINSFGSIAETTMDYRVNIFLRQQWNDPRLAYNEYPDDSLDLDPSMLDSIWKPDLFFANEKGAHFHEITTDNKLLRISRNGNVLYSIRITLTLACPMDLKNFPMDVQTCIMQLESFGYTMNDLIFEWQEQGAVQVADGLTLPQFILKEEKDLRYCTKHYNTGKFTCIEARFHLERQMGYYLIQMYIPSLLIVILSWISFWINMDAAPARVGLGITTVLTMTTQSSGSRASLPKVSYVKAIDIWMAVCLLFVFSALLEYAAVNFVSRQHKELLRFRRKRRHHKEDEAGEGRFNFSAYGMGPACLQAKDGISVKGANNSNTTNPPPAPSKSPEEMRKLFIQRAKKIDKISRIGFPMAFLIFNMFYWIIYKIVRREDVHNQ
Experiment: Whole-cell patch-clamp of glycine-evoked currents, transfected HEK293 cells
Format: cell-based
Details: α1GlyR; alkaloid 300 µM co-applied with subsaturated glycine; mean ± SE

Query: Value lookup for percentage change in peak current modulation; key = C=C[C@@]12CN(C)[C@H]3C[C@]14C(=Nc1ccccc14)[C@H]1C[C@@H]2[C@@H]3CO1
Reply: −95.53% ± 0.70%

Query: Value lookup for percentage change in peak current modulation; key = CCC1=N[C@H]2C[C@@]3(C(=O)N(OC)c4ccccc43)[C@H]3C[C@@H]1[C@@H]2CO3
Reply: −13.64% ± 4.34%

Query: Value lookup for percentage change in peak current modulation; key = C=C[C@]12CN(C)[C@@H]3[C@H]4CO[C@H](C[C@H]41)[C@]1(C(=O)N(OC)c4ccccc41)[C@@H]32
Reply: −98.89% ± 0.68%

Query: Value lookup for percentage change in peak current modulation; key = C=C[C@]12CN(C)[C@@H]3[C@H]4CO[C@H](C[C@H]41)[C@]1(C(=O)Nc4ccccc41)[C@@H]32
Reply: −70.39% ± 4.85%
